Recorded values, source PubChem BioAssay (NCI).

- Tested on: K-562 leukemia
- PROTOCOL DETAILS: NCI tumour cell line growth inhibition, 48 h
MEASURED ATTRIBUTE: TGI

Reference set, count: 4
Nc1ccc2c(c1)CC1c3ccccc3C(C2)c2ccccc21 | > 100 µM
Cc1nc(-c2nc(C)c(C(=O)NN(C)C)s2)sc1C(=O)NN(C)C | > 100 µM
Cc1cc2c3ccccc3ccc2[n+]2ccccc12 | 32.8 µM
C/C(=N\NC(=O)c1ccccc1O)c1cccc(/C(C)=N/NC(=O)c2ccccc2O)n1 | > 100 µM

Find the measured TGI: item COc1ccccc1N1C(=O)CS(=O)(=O)C1c1cccc(Oc2ccccc2)c1 (stereo not given) , target or system K-562 leukemia.
19.1 µM
